biological target: his-galectin-3 (Homo sapiens, UniProt P17931); construct: purchased Abcam; assay: TR-FRET assay (in vitro galectin-3 binding inhibitory activity test); conditions: read-out: % Inhibitory activity (at 20 μM), Table 3, found values; compound at 20 μM; 60 nM his-galectin-3, 15 nM biotin-ASF
Sequence (P17931 whole entry): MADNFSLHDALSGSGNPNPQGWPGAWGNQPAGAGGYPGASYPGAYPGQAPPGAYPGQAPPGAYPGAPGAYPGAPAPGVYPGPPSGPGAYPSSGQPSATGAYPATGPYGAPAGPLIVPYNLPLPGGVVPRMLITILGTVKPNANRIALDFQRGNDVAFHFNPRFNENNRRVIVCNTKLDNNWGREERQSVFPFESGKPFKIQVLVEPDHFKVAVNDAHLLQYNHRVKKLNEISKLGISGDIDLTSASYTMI
Answer each item with its documented inhibition at 20 µM.
Answers are plain numbers, in %.

Here's what some known entries look like.
molecule	observable	recordedValue
OC[C@H]1O[C@@]2(CCCO2)[C@H](OCc2cccc(F)c2F)[C@@H](n2cc(-c3cc(F)c(F)c(F)c3)nn2)[C@H]1O	inhibition at 20 µM	17.3
O=C(N[C@@H]1CCO[C@]12O[C@H](CO)[C@H](O)[C@H](n1cc(-c3cc(F)c(F)c(F)c3)nn1)[C@H]2O)c1cccc(Cl)c1	inhibition at 20 µM	93.7
O=C(Cc1ccccc1)N[C@@H]1CCO[C@]12O[C@H](CO)[C@H](O)[C@H](n1cc(-c3cc(F)c(F)c(F)c3)nn1)[C@H]2O	inhibition at 20 µM	40.7
O=C(OC1[C@@H](n2cc(-c3cc(F)c(F)c(F)c3)nn2)[C@@H](O)[C@@H](CO)O[C@@]12CCCO2)c1cccnc1 (stereo in doubt)	inhibition at 20 µM	32

# next molecule below
Ask: Report inhibition at 20 µM for CC(O[C@@H]1[C@@H](n2cc(-c3cc(F)c(F)c(F)c3)nn2)[C@@H](O)[C@@H](CO)O[C@@]12CCCCO2)C(=O)O (some centres unmarked) please.
Result: 60
